molecular target: PI3K-beta (Homo sapiens, UniProt P42338); assay: HTRF in vitro profiling assay for PI3K inhibition (beta isoform); conditions: PI3K-beta enzyme pIC50 range, 200 pM enzyme, 100 uM ATP, 10 uM PIP2, 150 mM NaCl, corrected pIC50, read-out: PI3K-b Enz Activity
Sequence (P42338 whole entry, canonical isoform): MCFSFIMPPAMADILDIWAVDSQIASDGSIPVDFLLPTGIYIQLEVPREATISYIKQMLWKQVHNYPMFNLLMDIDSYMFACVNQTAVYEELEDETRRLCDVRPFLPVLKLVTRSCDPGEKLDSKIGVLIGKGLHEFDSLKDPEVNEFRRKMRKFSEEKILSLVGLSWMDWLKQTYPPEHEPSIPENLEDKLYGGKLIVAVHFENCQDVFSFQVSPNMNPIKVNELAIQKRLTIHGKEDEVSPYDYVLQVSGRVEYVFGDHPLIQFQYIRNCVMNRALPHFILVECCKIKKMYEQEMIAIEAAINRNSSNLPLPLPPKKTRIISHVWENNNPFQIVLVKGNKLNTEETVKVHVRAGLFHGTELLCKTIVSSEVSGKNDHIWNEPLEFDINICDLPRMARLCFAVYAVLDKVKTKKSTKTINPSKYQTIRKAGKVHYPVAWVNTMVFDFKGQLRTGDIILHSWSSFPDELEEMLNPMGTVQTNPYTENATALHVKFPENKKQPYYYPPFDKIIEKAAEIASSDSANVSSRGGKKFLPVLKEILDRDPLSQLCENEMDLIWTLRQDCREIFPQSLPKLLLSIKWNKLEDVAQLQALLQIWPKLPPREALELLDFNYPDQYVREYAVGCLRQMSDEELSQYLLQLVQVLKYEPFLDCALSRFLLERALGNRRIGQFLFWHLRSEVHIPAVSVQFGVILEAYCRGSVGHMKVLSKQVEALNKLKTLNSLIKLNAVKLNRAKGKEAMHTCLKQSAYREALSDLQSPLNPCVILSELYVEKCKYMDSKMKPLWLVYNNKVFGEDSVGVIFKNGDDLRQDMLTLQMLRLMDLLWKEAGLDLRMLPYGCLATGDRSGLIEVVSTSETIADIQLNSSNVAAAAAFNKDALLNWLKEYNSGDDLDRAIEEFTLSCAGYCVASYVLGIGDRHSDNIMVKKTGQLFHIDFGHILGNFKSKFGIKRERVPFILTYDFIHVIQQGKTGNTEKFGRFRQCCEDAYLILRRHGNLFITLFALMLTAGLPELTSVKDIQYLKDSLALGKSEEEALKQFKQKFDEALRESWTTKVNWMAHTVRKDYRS
Sequence (P27986 whole entry partner, canonical isoform): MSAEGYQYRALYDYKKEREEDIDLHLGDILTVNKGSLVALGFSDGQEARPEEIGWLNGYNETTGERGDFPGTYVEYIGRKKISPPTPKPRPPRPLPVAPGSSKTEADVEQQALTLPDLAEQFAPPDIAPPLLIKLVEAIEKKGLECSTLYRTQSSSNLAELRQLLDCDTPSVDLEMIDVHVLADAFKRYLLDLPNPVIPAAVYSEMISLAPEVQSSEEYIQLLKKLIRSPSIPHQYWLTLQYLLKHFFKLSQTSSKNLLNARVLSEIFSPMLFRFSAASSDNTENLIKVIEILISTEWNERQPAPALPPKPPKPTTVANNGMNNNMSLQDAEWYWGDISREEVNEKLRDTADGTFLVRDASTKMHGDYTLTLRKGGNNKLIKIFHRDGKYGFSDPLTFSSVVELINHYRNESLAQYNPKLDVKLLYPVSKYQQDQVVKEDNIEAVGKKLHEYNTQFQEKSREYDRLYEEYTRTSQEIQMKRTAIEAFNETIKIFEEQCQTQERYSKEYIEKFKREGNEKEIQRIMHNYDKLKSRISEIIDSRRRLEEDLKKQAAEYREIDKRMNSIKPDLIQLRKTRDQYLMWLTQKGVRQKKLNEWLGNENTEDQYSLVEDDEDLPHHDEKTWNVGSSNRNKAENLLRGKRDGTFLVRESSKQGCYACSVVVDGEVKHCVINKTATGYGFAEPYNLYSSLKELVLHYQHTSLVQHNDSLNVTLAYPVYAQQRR
pIC50: −log10 of the molar value.
Readout: pIC50

Observe how each entry below is paired with its result.
Cc1c(Cc2cnn3c(O)cc(N4CCOCC4)nc23)cccc1C(F)(F)F :: 8.00 to 8.90
Cc1ccccc1Cc1c(C)nn2c(O)cc(-c3ccncc3)nc12 :: 8.00 to 8.90
Nc1nn2c(O)cc(N3CCOCC3)nc2c1Cc1cccc2ccccc12 :: 9.00 to 9.90
Oc1cc(N2CCOCC2)nc2c(Cc3cccc(Cl)c3Cl)c(C(F)(F)F)nn12 :: 9.00 to 9.90
Cc1nn2c(N3CCOCC3)cc(N3CCOCC3)nc2c1Cc1cccc2ccccc12 :: 5.90 to 6.90
Cc1nn2c(-n3ccnc3)cc(N3CCOCC3)nc2c1Cc1cccc2ccccc12 :: 5.90 to 6.90
Cc1nn2c(N)cc(N3CCOCC3)nc2c1Cc1cccc(C(F)(F)F)c1C :: 7.00 to 7.90
Nc1cc(N2CCOCC2)nc2c(Cc3cccc(Cl)c3Cl)cnn12 :: 7.00 to 7.90

Record pIC50 for all entries; do not skip any.
1. Oc1nn2c(O)cc(-c3ccncc3)nc2c1Cc1ccccc1Cl
2. Cc1nn2c(NC(N)=O)cc(N3CCOCC3)nc2c1Cc1cccc(C(F)(F)F)c1C
3. Oc1cc(-c2ccncc2)nc2c(Cc3cccc(Cl)c3Cl)c(C(F)(F)F)nn12
4. Cc1nn2c(O)cc(C3CCOCC3)nc2c1Cc1cccc(C(F)(F)F)c1C
5. Cc1nn2ccc(C3CCOCC3)nc2c1Cc1cccc(C(F)(F)F)c1C

**Result**
["5.90 to 6.90", "7.00 to 7.90", "8.00 to 8.90", "8.00 to 8.90", "5.90 to 6.90"]

**Query** Give the measured pIC50 for "Cc1c(Cc2c(N)nn3c(O)cc(C4CCOCC4)nc23)cccc1C(F)(F)F"
**Result** 8.00 to 8.90

---

target: PI3K-beta (Homo sapiens); assay: HTRF in vitro profiling assay for PI3K inhibition (beta isoform); details: PI3K-beta enzyme pIC50 range, 200 pM enzyme, 100 uM ATP, 10 uM PIP2, 150 mM NaCl, corrected pIC50, read-out: PI3K-b Enz Activity
pIC50: −log10 of the molar value.
Please go through the items and note down their pIC50.

Observe how each entry below is paired with its result.
Cc1nn2c(O)cc(N3CCOCC3)nc2c1Cc1cccc(C(F)(F)F)c1C :: 9.00 to 9.90
Cc1nn2c(-c3nn[nH]n3)cc(N3CCOCC3)nc2c1Cc1cccc(C(F)(F)F)c1C :: 7.00 to 7.90
CCc1nn2c(O)cc(-c3ccncc3)nc2c1Cc1cccc(Cl)c1Cl :: 9.00 to 9.90

Record pIC50 for all entries; do not skip any.
1. Cc1nn2c(-c3nc[nH]n3)cc(N3CCOCC3)nc2c1Cc1cccc2ccccc12
2. Cc1c(Cc2cnn3c(Cl)cc(N4CCOCC4)nc23)cccc1C(F)(F)F

**Result**
1. 8.00 to 8.90
2. 5.90 to 6.90

---

Please go through the items and note down their pIC50.
Target: PI3K-beta (Homo sapiens, UniProt P42338)
Construct: made in house
Experiment: HTRF in vitro profiling assay for PI3K inhibition (beta isoform)
Type: biochemical
Conditions: PI3K-beta enzyme pIC50 range, 200 pM enzyme, 100 uM ATP, 10 uM PIP2, 150 mM NaCl, corrected pIC50, read-out: PI3K-b Enz Activity
Description: HTRF In Vitro Profiling Assays for PI3K Inhibition The PI3-Kinase profiling assays were developed to measure the compound-dependent inhibition of the alpha, beta, delta, and gamma isoforms of PI3K in an in vitro catalytic assay. […] The native PIP3 produced by PI 3-Kinase activity displaces biotin-PIP3 from the PH domain, resulting in the dissociation of the HTRF complex and a decrease in the fluorescence signal. […]
pIC50: −log10 of the molar value.

Cc1c(Cc2c(O)nn3c(O)cc(C4CCOCC4)nc23)cccc1C(F)(F)F [Example 19] :: 7.00 to 7.90
Cc1c(Cc2cccc(Cl)c2Cl)c2nc(-c3ccncc3)cc(=O)n2n1C [Example 33] :: 5.90 to 6.90
Cc1ccccc1Cc1c(C)nn2c(-c3cn[nH]c3)cc(-c3ccncc3)nc12 [Example 49] :: 5.90 to 6.90
CCc1nn2c(O)cc(C3CCOCC3)nc2c1Cc1cccc(Cl)c1Cl [Example 15] :: 8.00 to 8.90
Cn1c(=O)c(Cc2cccc(Cl)c2Cl)c2nc(-c3ccncc3)cc(O)n21 [Example 50] :: 7.00 to 7.90

Record pIC50 for all entries; do not skip any.
1. Cc1c(Cc2cnn3c(O)cc(-c4ccncc4)nc23)cccc1C(F)(F)F [Example 13]
2. Cc1nn2c(O)cc(N3CCOC(C)C3)nc2c1Cc1cccc(C(F)(F)F)c1C (stereo not drawn) [Example 2]
3. Cc1nn2c(-c3ncc[nH]3)cc(N3CCOCC3)nc2c1Cc1cccc2ccccc12 [Example 43]
4. Cc1nn2c(-c3cc[nH]n3)cc(N3CCOCC3)nc2c1Cc1cccc2ccccc12 [Example 42]
5. Cc1nn2c(-c3nn[nH]n3)cc(N3CCOCC3)nc2c1Cc1cccc2ccccc12 [Example 47]
6. COc1cc(N2CCOCC2)nc2c(Cc3cccc(C(F)(F)F)c3C)cnn12 [Example 12]
7. Oc1cc(C2CCOCC2)nc2c(Cc3cccc(Cl)c3Cl)c(C(F)(F)F)nn12 [Example 9]

**Result**
["8.00 to 8.90", "8.00 to 8.90", "8.00 to 8.90", "8.00 to 8.90", "7.00 to 7.90", "5.90 to 6.90", "8.00 to 8.90"]

---

Please go through the items and note down their pIC50.
tested on: pAKT(Ser473) in MDA-MB-468 cells; assay: pAKT(Ser473) assay in MDA-MB-468 cells; assay type: cell-based; settings: Homo sapiens, 0.5 h, compound treatment 30 minutes, MSD ELISA phospho AKT(Ser473), given as ranges, read-out: Cell Activity—pAKT IC50 in MDA-MB-468
pIC50: −log10 of the molar value.

Observe how each entry below is paired with its result.
Oc1cc(C2CCOCC2)nc2c(Cc3cccc(Cl)c3Cl)c(C(F)(F)F)nn12 :: < 4.70
Nc1nn2c(O)cc(N3CCOCC3)nc2c1Cc1cccc2ccccc12 :: > 6.00
Cc1nn2c(-c3nn[nH]n3)cc(N3CCOCC3)nc2c1Cc1cccc(C(F)(F)F)c1C :: 5.30 to 6.00
Cc1nn2c(C(N)=O)cc(N3CCOCC3)nc2c1Cc1cccc2ccccc12 :: > 6.00
Nc1cc(N2CCOCC2)nc2c(Cc3cccc(Cl)c3Cl)cnn12 :: > 6.00

Record pIC50 for all entries; do not skip any.
1. Cc1c(Cc2cnn3c(O)cc(-c4ccncc4)nc23)cccc1C(F)(F)F
2. Cc1nn2c(-c3cc[nH]n3)cc(N3CCOCC3)nc2c1Cc1cccc2ccccc12
3. Oc1nn2c(O)cc(-c3ccncc3)nc2c1Cc1ccccc1Cl

**Result**
["5.30 to 6.00", "> 6.00", "< 4.70"]

Record pIC50 for all entries; do not skip any.
1. Cc1c(Cc2cccc(Cl)c2Cl)c2nc(-c3ccncc3)cc(=O)n2n1C
2. Cc1nn2c(-c3ncc[nH]3)cc(N3CCOCC3)nc2c1Cc1cccc2ccccc12
3. CCc1nn2c(O)cc(-c3ccncc3)nc2c1Cc1cccc(Cl)c1Cl
4. Cc1nn2c(O)cc(N3CCOCC3)nc2c1Cc1cccc2ccccc12
5. Cc1nn2c(C(N)=O)cc(N3CCOCC3)nc2c1Cc1cccc(C(F)(F)F)c1C
6. Oc1cc(-c2ccncc2)nc2c(Cc3cccc(Cl)c3Cl)c(C(F)(F)F)nn12
7. Cc1nn2c(NC(N)=O)cc(N3CCOCC3)nc2c1Cc1cccc(C(F)(F)F)c1C
8. Cc1nn2c(C#N)cc(N3CCOCC3)nc2c1Cc1cccc(C(F)(F)F)c1C

**Result**
1. < 4.70
2. > 6.00
3. < 4.70
4. 5.30 to 6.00
5. < 4.70
6. 4.70 to 4.96
7. < 4.70
8. < 4.70

Record pIC50 for all entries; do not skip any.
1. Cc1c(Cc2c(N)nn3c(O)cc(N4CCOCC4)nc23)cccc1C(F)(F)F
2. Cc1nn2c(C(=O)O)cc(N3CCOCC3)nc2c1Cc1cccc(C(F)(F)F)c1C

**Result**
> 6.00
5.30 to 6.00

Record pIC50 for all entries; do not skip any.
1. Cc1nn2c(O)cc(-c3ccncc3)nc2c1Cc1cccc(Cl)c1Cl
2. COc1nn2c(O)cc(-c3ccncc3)nc2c1Cc1cccc(Cl)c1Cl
3. Oc1cc(N2CCOCC2)nc2c(Cc3cccc(Cl)c3Cl)c(C(F)(F)F)nn12
4. Cc1nn2c(-c3nn[nH]n3)cc(N3CCOCC3)nc2c1Cc1cccc2ccccc12
5. Cc1c(Cc2c(N)nn3c(O)cc(C4CCOCC4)nc23)cccc1C(F)(F)F
6. Cc1nn2c(O)cc(N3CCOCC3)nc2c1Cc1cccc(C(F)(F)F)c1C

**Result**
1. 5.00 to 5.22
2. 4.70 to 4.96
3. 5.30 to 6.00
4. 5.30 to 6.00
5. > 6.00
6. 5.30 to 6.00
